The reported measurements were obtained from ChEMBL document CHEMBL2163248.

# reported INH; entries follow
molecular target: Solute carrier organic anion transporter family member 2B1 (Homo sapiens, UniProt O94956); experiment: Inhibition of human liver OATP2B1 expressed in HEK293 Flp-In cells assessed as reduction in [3H]E3S uptake at 20 uM incubated for 5 mins by scintillation counting; conditions: hek293, 5 min
Sequence (O94956 whole entry): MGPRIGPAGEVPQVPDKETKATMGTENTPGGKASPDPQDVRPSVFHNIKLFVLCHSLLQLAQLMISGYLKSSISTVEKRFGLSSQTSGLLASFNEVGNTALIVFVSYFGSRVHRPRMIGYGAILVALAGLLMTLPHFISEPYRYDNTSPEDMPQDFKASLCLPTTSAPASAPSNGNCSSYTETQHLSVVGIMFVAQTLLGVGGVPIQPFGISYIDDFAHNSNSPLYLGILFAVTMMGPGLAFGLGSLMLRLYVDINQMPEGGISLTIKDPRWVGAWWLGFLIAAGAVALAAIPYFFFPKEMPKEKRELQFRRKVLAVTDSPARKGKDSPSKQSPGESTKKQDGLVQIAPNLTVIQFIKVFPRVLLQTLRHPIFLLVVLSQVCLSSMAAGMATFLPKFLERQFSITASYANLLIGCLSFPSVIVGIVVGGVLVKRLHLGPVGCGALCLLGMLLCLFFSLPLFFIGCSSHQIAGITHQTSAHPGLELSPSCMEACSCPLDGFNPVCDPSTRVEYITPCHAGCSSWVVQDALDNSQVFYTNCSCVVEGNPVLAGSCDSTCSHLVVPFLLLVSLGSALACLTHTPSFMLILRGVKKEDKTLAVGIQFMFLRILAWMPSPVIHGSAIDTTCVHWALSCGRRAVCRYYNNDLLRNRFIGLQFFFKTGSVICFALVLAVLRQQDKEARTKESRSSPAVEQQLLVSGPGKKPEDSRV
Where a SMILES comes first, the peptide text is derived from it.

Compound	Subject of test	INH
CC[C@]1(O)C[C@@H]2CN(CCc3c([nH]c4ccccc34)[C@@](C(=O)OC)(c3cc4c(cc3OC)N(C)[C@H]3[C@@](O)(C(=O)OC)[C@H](OC(C)=O)[C@]5(CC)C=CCN6CC[C@]43[C@@H]65)C2)C1	Solute carrier organic anion transporter family member 2B1 (Homo sapiens, UniProt O94956)	-9.3%
CN(CCOc1ccc(CC2SC(=O)NC2=O)cc1)c1ccccn1 (configuration not stated)	Solute carrier organic anion transporter family member 2B1 (Homo sapiens, UniProt O94956)	10%
CC[N+](CC)(CC)CC	Solute carrier organic anion transporter family member 2B1 (Homo sapiens, UniProt O94956)	6.7%
C[C@H](CCC(=O)NCC(=O)O)[C@H]1CC[C@H]2[C@@H]3[C@H](O)C[C@@H]4C[C@H](O)CC[C@]4(C)[C@H]3C[C@H](O)[C@]12C	Solute carrier organic anion transporter family member 2B1 (Homo sapiens, UniProt O94956)	-9.8%
CC(C)Cc1ccc(C(C)C(=O)O)cc1 (configuration not stated)	Solute carrier organic anion transporter family member 2B1 (Homo sapiens, UniProt O94956)	13.5%
NCC(=O)N1CCC[C@H]1C(=O)O [GLYCYL PROLINE] (H-Gly-Pro-OH)	Solute carrier organic anion transporter family member 2B1 (Homo sapiens, UniProt O94956)	24.1%
O=C(O)[C@H]1O[C@@H](Oc2cc3oc(-c4ccccc4)cc(=O)c3c(O)c2O)[C@H](O)[C@@H](O)[C@@H]1O	Solute carrier organic anion transporter family member 2B1 (Homo sapiens, UniProt O94956)	59.1%
